I'd appreciate it if you could supply ka values for the items below.
Molecular target: T1, human Amyloid beta 1-42 peptide (Homo sapiens, UniProt P05067)
T1 construct: biotinylated human Amyloid beta 1-42 peptide (rpeptide, USA; cat: A1117); purchased rPeptide, USA A1117; host or cells: synthetic peptide
T1 sequence (P05067 672-713): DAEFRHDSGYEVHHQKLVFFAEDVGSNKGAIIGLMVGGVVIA
Assay: Surface Plasmon Resonance kinetic profiling of purified scFv (ProteOn)
Assay type: binding
Details: biotinylated human Amyloid beta 1-42 on streptavidin chip
One number for each entry, in M⁻¹ s⁻¹.

1) Abet0383: optimized anti-Aβ1-42 clone derived from Abet0144-GL (protein, left off: small tags and cut ends, optimized anti-Aβ1-42 clone derived from Abet0144-GL) scFv (part 1 of 2): EVQLLESGGGLVQPGGSLKLSCAASGFTFDWYPMWWVRQAPGKRLEWISVIGADNAKIAYADSVKGRFTISRDNSKNTLYLQMNSLRAEDTAVYYCAREWMGHSRPYYYYGMDVWGQGTPVTVSS scFv (part 2 of 2): SYELTQPPSVSVSPGQTASITCSGHNLGDKFASWYQQKPGQSPVLVIYRDDKRPSGIPERFSASNSGHTATLTISGTQATDEADYYCSSQDTVTRVFGGGTKLTVL	181000

// moving on: another record for ka
Return reported ka; argument: Abet0344: optimized anti-Aβ1-42 clone derived from Abet0144-GL (protein, left off: small tags and cut ends, optimized anti-Aβ1-42 clone derived from Abet0144-GL) scFv (part 1 of 2): EVQLLESGGGLVQPGGSLSLSCAASGFTFSVYTMWWVRQAPGKGLEWVSVIGGNETRKAYADSVKGRFTISRDNSKNRLYLQMNSLRAEDTAVYYCAREWMDHSRPYYYYGMDVWGQGTLVTVSS scFv (part 2 of 2): QSVLTQPPSVSVSPGQTASITCSGHNLEDKFASWYQQKSGQSPVLVIYRDDKRPSGIPERFSASNSGHTATLTISGTQATDEADYYCATQDNFTRVFGGGTKLTVL
77500
